- SYSTEM: hTREM2 (Homo sapiens, UniProt Q9NZC2)
- Sequence (Q9NZC2 19-230): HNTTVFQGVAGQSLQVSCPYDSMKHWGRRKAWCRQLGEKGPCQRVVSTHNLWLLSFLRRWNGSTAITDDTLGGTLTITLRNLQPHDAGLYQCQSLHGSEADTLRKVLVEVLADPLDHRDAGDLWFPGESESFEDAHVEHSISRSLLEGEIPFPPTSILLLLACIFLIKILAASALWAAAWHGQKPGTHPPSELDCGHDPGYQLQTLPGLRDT
- Sequence (O43914 22-113 partner): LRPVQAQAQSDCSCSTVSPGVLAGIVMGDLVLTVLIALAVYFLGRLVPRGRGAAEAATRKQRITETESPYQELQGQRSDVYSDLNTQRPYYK
- PROCEDURE TEXT: Phospho-Syk AlphaScreen/AlphaLISA assay in TREM2 and DAP12 overexpressing HEK293 cells (Example A1)
- Assay type: cell-based
- Set-up: expressed in transfected cells
- EXPERIMENTAL PARAMETERS: HEK293 cells, read-out: hTREM2 EC50
MEASUREMENT LABEL: EC50

{"COMPOUND": "Cc1nc2cc(N3CC[C@@H](c4cccnc4)C3)nc(-c3ccc(Cl)cc3F)c2c(=O)n1C", "SYSTEM": "hTREM2 (Homo sapiens, UniProt Q9NZC2)", "OBSERVED MEASUREMENT": "3000 to 100000 nM"}
{"COMPOUND": "Cc1nc2cc(N3C[C@@H](C)O[C@@H](C4CC4)C3)nc(-c3ccc(Cl)cc3F)c2c(=O)n1C (single isomer, unassigned)", "SYSTEM": "hTREM2 (Homo sapiens, UniProt Q9NZC2)", "OBSERVED MEASUREMENT": "500 to 3000 nM"}
{"COMPOUND": "Cc1nc2cc(N3CCC[C@H](c4cn[nH]c4)C3)nc(-c3ccc(Cl)cc3F)c2c(=O)n1C (single isomer, unassigned)", "SYSTEM": "hTREM2 (Homo sapiens, UniProt Q9NZC2)", "OBSERVED MEASUREMENT": "50 to 500 nM"}
{"COMPOUND": "Cc1nc2cc(N3CC[C@H](C(F)(F)F)C3)nc(-c3ccc(Cl)cc3F)c2c(=O)n1C", "SYSTEM": "hTREM2 (Homo sapiens, UniProt Q9NZC2)", "OBSERVED MEASUREMENT": "500 to 3000 nM"}

###

- SYSTEM: hTREM2 (Homo sapiens, UniProt Q9NZC2)
- PROCEDURE TEXT: Phospho-Syk AlphaScreen/AlphaLISA assay in TREM2 and DAP12 overexpressing HEK293 cells (Example A1)
- Assay type: cell-based
- Design: expressed in transfected cells
- EXPERIMENTAL PARAMETERS: HEK293 cells

{"COMPOUND": "Cc1nc2cc(N3CCc4ccncc4C3)nc(-c3ccc(Cl)cc3F)c2c(=O)n1C [Example 102]", "Emax": "+++ (Emax>200 and ≤300)"}
{"COMPOUND": "Cc1nc2cc(N3CCO[C@H](c4ccnc(OCC(F)(F)F)c4)C3)nc(-c3ccc(Cl)cc3F)c2c(=O)n1C (single isomer, unassigned) [Example 95]", "Emax": "++++ (Emax>300)"}
{"COMPOUND": "Cc1nc2cc(N3CC[C@H](c4cnn(C)c4)C3)nc(-c3ccc(Cl)cc3F)c2c(=O)n1C [Example 202]", "Emax": "+++ (Emax>200 and ≤300)"}
{"COMPOUND": "Cc1nc2cc(N3CCO[C@H](c4noc(C5CC5)n4)C3)nc(-c3ccc(Cl)cc3F)c2c(=O)n1C [Example 201]", "Emax": "++++ (Emax>300)"}
{"COMPOUND": "Cc1nc2cc(N3CCOC(c4ccnnc4)C3)nc(-c3ccc(Cl)cc3F)c2c(=O)n1C (stereo not shown) [Example 50]", "Emax": "++++ (Emax>300)"}

###

- SYSTEM: UniProt:Q9NZC2
- PROCEDURE TEXT: Phospho-Syk AlphaScreen/AlphaLISA assay in TREM2 and DAP12 overexpressing HEK293 cells (Example A1)
- Type: cell-based
- Set-up: expressed in transfected cells
- EXPERIMENTAL PARAMETERS: HEK293 cells
MEASUREMENT LABEL: Emax

{"MOLECULE": "Cc1nc2cc(N3CCO[C@@H](c4cnn(C5CN(C(=O)OC(C)(C)C)C5)c4)C3)nc(-c3ccc(Cl)cc3F)c2c(=O)n1C", "SYSTEM": "UniProt:Q9NZC2", "OBSERVED MEASUREMENT": "++++ (Emax>300)"}
{"MOLECULE": "Cc1nc([C@@H]2CN(c3cc4nc(C)n(C)c(=O)c4c(-c4ccc(Cl)cc4F)n3)CCO2)no1 [Example 200]", "SYSTEM": "UniProt:Q9NZC2", "OBSERVED MEASUREMENT": "++++ (Emax>300)"}
{"MOLECULE": "Cc1nc2cc([C@@H]3CCO[C@@H](c4cccnc4)C3)nc(-c3ccc(Cl)cc3F)c2c(=O)n1C (relative stereo)", "SYSTEM": "UniProt:Q9NZC2", "OBSERVED MEASUREMENT": "++++ (Emax>300)"}
